System: MCF-7 cells
ASSAY_INFO: MTT cell viability
Assay type: cell-based, human
CONDITION_DESCRIPTION: read-out: concentration for 50% reduction of viability (IC50), MCF-7, 48 h, mean ± SD for three trials
Method: Figures are representative of three trials with data plotted as mean percentage versus untreated cells±SD of the four replicates per plate). Vehicle (DMSO or 10 mM NaOH) was added as a control to otherwise untreated cells. For examples utilizing cell culture methods, the following procedure was instituted. […]
pIC50: −log10 of the molar value.
The following molecules are listed with their measured pIC50 values.

| MOLECULE | pIC50 |
| --- | --- |
| CCN(CC)[N+]([O-])=NOCOC(=O)c1ccccc1OC(C)=O [DEA/NO-aspirin] | 3.91 |
| CC(=O)Oc1ccccc1C(=O)OCON=[N+]([O-])NC(C)C [IPA/NO-aspirin] | 4.03 |

src = patent US10213445B2
